Each entry below carries its recorded viability at 10 µM.
# Test system: NIH: OVCAR-3
# experiment.description: Cell viability analysis, ovarian cancer NIH: OVCAR-3
# Assay type: cell-based, human
# stated.conditions: Homo sapiens, OVCAR-3, 72 h, read-out: The results of antibiotic drug inhibiting cancer cell lines (cell viability analysis), NIH-OVCAR-3
Where a name gives a salt, the structure may show the parent alone.
test.readout: viability at 10 µM (%)

[[record]]
molecule = "Cc1cc2c(s1)Nc1ccccc1N=C2N1CCN(C)CC1 [Olanzapine (Zyprexa), Olanzapine]"
system_under_test = "NIH: OVCAR-3"
test_readout = "viability at 10 µM"
experimental_value = 96.8

[[record]]
molecule = "CC(NC(C)(C)C)C(=O)c1cccc(Cl)c1 (stereo not drawn) [Amfebutamone (Bupropion), Amfebutamone]"
system_under_test = "NIH: OVCAR-3"
test_readout = "viability at 10 µM"
experimental_value = 109

[[record]]
molecule = "CO[C@H]1/C=C/O[C@@]2(C)Oc3c(C)c(O)c4c(O)c(c5c(nc6cc(C)ccn65)c4c3C2=O)NC(=O)/C(C)=C\\C=C\\[C@H](C)[C@H](O)[C@@H](C)[C@@H](O)[C@@H](C)[C@H](OC(C)=O)[C@@H]1C [Rifaximin (Xifaxan), Rifaximin]"
system_under_test = "NIH: OVCAR-3"
test_readout = "viability at 10 µM"
experimental_value = 100

[[record]]
molecule = "CN(C)C(=O)C(CCN1CCC(O)(c2ccc(Cl)cc2)CC1)(c1ccccc1)c1ccccc1 [Loperamide hydrochloride]"
system_under_test = "NIH: OVCAR-3"
test_readout = "viability at 10 µM"
experimental_value = 75.5

[[record]]
molecule = "CC(C)(C)C(=O)OCOP(=O)(COCCn1cnc2c(N)ncnc21)OCOC(=O)C(C)(C)C [Adefovir Dipivoxil (Preveon, Hepsera), Adefovir Dipivoxil]"
system_under_test = "NIH: OVCAR-3"
test_readout = "viability at 10 µM"
experimental_value = 78.8

[[record]]
molecule = "CN(C)[C@@H]1C(O)=C(C(N)=O)C(=O)[C@@]2(O)C(O)=C3C(=O)c4c(O)cccc4[C@@](C)(O)[C@H]3C[C@@H]12 [Tetracycline HCl]"
system_under_test = "NIH: OVCAR-3"
test_readout = "viability at 10 µM"
experimental_value = 104

[[record]]
molecule = "CN(C)[C@@H]1C(O)=C(C(N)=O)C(=O)[C@@]2(O)C(O)=C3C(=O)c4c(O)ccc(Cl)c4[C@@](C)(O)[C@H]3C[C@@H]12 [Chlortetracycline HCl]"
system_under_test = "NIH: OVCAR-3"
test_readout = "viability at 10 µM"
experimental_value = 99.3

[[record]]
molecule = "CC[C@H]1OC(=O)[C@H](C)[C@@H](O[C@H]2C[C@@](C)(OC)[C@@H](O)[C@H](C)O2)[C@H](C)[C@@H](O[C@@H]2O[C@H](C)C[C@H](N(C)C)[C@H]2O)[C@](C)(O)C[C@@H](C)CN(C)[C@H](C)[C@@H](O)[C@]1(C)O [Azithromycin Dihydrate]"
system_under_test = "NIH: OVCAR-3"
test_readout = "viability at 10 µM"
experimental_value = 94

[[record]]
molecule = "COc1cc(NC(C)CCCN)c2ncccc2c1 (stereo not drawn) [Primaquine Diphosphate]"
system_under_test = "NIH: OVCAR-3"
test_readout = "viability at 10 µM"
experimental_value = 60.2

[[record]]
molecule = "CCOc1ccc(NC(C)=O)cc1 [Phenacetin]"
system_under_test = "NIH: OVCAR-3"
test_readout = "viability at 10 µM"
experimental_value = 105

[[record]]
molecule = "CCC[C@H](NC(=O)[C@@H]1[C@H]2CCC[C@H]2CN1C(=O)[C@@H](NC(=O)[C@@H](NC(=O)c1cnccn1)C1CCCCC1)C(C)(C)C)C(=O)C(=O)NC1CC1 [Telaprevir (VX-950), Telaprevir]"
system_under_test = "NIH: OVCAR-3"
test_readout = "viability at 10 µM"
experimental_value = 95.6

[[record]]
molecule = "O=c1n(CCCN2CCN(c3cccc(Cl)c3)CC2)nc2ccccn12 [Trazodone hydrochloride (Desyrel), Trazodone hydrochloride]"
system_under_test = "NIH: OVCAR-3"
test_readout = "viability at 10 µM"
experimental_value = 103

